Source of measurements: the OligoGym collection

- target.system: SURF1; further: reference of the scale not given here
- assay.explanation: pooled miR-30 sensor sort-seq; sequence = guide strand
- condition.notes: shRNA
Can you tell me sensor-assay potency score (higher = more potent) for the items I'm about to list?
Numbers only.

Give one value of sensor-assay potency score (higher = more potent) per listed sequence.
1. TTTCTTAAACCACAGGTAGGAT
2. TTGTGGCAGATGCTTCTGCTGC
3. TTGAAATACTGCATTATCCAGG
4. TCTGTCAGCCTCACCATCCCAA

Reply |
[-0.803, -1.64, -0.184, -0.843]

Could you tell me sensor-assay potency score (higher = more potent) for each of these sequences? They are listed below.
1. TTCAGGATTCACTTTCTTCCTG
2. TCAGGATTCACTTTCTTCCTGG

Reply |
[-0.13, 0.148]

Required: sensor-assay potency score (higher = more potent), one value per sequence below.
1. TTCCAGGTCTCGATAATGCCAG
2. TCAGCTTCCACTTCCGACGCTG

Reply |
1. -0.863
2. 0.863
